- PROTOCOL DESCRIPTION: chemical genetic growth profiling, strain panel (AID 1159580);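 further: tested at 20 µM; growth read once vehicle control cultures reached saturation at 30 °C; lower values mean less growth of the strain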
- MEASUREMENT PARAMETERS: S. cerevisiae deletion strains, growth OD, locus YLR403W, strain SFP1, hits give low values
About 2,000 (36%) of roughly 5,500 compounds were called active. Not shown: some 18% with an inconclusive outcome. This is one part of the list.
I'd appreciate it if you could label each record using normalized growth and these ranges: low group (below 0.7), middle group (0.7 to below 0.9), high group (0.9 or more)

- CO/N=C1/CC(C)(C)Cc2c(-c3ccn(C(=O)Nc4cccc(Cl)c4)n3)sc(SC)c21: high group
- FC(F)(F)Sc1ccc(OCc2n[nH]c(=S)n2-c2ccccc2)cc1: high group
- O=S(=O)(c1cc(Cl)ccc1Cl)N1CCc2ccccc2C1: high group
- CN1/C(=C/C=C/c2ccc3ccccc3[n+]2C)C=Cc2ccccc21: low group
- Cc1cc(Br)c(O)c(/C=N\NC(=S)NC(C)(C)C)c1: middle group

# classify by normalized growth band: O=C(NNc1cc(C(F)(F)F)cc(C(F)(F)F)c1)c1cnc2n(c1=O)CCS2
high group

Hi there! Could you help me figure out the category for O=C1OC(c2ccccc2)=C/C1=C/c1ccccc1 please?
low group

Bin this entry: O=C1Nc2ccccc2/C1=C\c1cccc2ccccc12
middle group
